- tested system: CAv1.2 (Homo sapiens)
- test details: L-type (CAv1.2) channel blocking, FLIPR data (Table 6)
- Format: cell-based
- recorded conditions: inactivated state, read-out: CAv1.2 IC50 Inact.
endpoint name: IC50 (µM)
The reply should be a number in µM, with the unit left off.

IC50 for "O=C(c1ccc(OCC(F)(F)F)nc1)N1CC(CS(=O)(=O)c2cc(F)cc(C(F)(F)F)c2)C1" is 8.8

IC50 for "CC(C)([C@H]1C[C@H](C(=O)NCc2ccc(Oc3ccccc3)cc2)C1)S(=O)(=O)c1cccc(C(F)(F)F)c1" is 0.83

###

- tested system: human α1G T-type channels (Homo sapiens)
- Sequence (O43497 whole entry): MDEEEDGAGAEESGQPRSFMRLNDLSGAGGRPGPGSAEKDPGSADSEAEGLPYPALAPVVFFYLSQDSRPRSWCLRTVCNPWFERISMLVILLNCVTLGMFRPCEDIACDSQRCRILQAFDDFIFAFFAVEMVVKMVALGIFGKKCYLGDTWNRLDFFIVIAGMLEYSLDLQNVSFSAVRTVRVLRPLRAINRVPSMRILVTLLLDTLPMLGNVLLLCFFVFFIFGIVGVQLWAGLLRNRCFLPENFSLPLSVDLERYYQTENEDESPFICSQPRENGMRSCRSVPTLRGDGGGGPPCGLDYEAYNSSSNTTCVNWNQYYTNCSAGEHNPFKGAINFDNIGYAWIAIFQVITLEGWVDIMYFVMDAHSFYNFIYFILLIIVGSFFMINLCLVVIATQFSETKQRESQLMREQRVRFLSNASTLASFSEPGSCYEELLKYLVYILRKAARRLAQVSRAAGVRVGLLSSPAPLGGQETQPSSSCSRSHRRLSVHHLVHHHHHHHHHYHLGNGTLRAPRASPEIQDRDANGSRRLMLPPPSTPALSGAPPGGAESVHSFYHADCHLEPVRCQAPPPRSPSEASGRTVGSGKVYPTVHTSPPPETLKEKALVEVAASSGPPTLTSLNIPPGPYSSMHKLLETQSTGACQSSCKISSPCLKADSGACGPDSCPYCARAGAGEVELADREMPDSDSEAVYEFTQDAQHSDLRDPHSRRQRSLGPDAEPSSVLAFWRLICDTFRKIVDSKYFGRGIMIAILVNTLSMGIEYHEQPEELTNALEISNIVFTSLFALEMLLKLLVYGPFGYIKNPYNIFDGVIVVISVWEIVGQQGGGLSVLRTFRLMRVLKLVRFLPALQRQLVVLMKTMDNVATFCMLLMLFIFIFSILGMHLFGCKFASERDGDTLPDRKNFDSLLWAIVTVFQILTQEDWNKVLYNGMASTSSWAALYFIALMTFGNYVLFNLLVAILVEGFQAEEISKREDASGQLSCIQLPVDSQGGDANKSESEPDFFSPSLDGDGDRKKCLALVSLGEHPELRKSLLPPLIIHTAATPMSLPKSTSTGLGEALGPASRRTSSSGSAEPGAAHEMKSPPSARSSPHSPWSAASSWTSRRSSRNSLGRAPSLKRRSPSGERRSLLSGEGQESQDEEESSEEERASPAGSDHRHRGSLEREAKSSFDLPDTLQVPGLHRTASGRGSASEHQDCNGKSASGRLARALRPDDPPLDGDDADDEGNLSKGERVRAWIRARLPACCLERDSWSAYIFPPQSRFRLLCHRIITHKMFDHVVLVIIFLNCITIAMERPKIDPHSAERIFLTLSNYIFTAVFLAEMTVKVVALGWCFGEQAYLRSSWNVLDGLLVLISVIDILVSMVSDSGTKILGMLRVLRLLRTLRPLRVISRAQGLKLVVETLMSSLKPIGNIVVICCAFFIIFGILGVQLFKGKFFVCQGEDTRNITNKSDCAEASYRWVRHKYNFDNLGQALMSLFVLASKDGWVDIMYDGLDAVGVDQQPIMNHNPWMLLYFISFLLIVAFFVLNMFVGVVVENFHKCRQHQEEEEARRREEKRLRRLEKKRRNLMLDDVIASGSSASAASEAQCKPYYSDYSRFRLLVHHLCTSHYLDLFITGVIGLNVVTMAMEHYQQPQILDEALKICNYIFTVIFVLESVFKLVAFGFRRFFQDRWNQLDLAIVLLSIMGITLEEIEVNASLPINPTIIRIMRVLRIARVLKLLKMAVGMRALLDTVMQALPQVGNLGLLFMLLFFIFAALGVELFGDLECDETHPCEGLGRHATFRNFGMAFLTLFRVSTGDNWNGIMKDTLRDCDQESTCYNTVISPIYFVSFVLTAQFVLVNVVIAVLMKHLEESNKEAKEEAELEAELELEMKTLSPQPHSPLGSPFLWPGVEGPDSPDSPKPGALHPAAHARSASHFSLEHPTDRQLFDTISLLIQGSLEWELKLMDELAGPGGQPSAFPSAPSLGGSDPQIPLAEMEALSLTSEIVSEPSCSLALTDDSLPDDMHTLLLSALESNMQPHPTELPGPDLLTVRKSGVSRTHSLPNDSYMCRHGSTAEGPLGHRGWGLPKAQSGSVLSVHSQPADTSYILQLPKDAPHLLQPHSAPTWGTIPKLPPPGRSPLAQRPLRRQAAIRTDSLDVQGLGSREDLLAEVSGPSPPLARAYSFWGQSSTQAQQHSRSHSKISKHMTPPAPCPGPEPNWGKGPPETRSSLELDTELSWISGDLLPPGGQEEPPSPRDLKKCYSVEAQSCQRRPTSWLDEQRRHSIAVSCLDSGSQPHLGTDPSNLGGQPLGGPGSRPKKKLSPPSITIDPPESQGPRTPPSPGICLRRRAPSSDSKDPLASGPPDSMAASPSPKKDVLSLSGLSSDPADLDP
- test details: T-type calcium channel block, whole cell patch clamp, α1G
- recorded conditions: HEK cells stably expressing human α1G; mainly non-inactivated protocol; values above 10,000 nM represented as 10000
Please go through the items and note down their pIC50.
Lab note: report pIC50 as minus log10 of the concentration in molar units, number only.

pIC50 for "COc1cc(F)cc(C(=O)N[C@H]2CC[C@H](S(=O)(=O)c3cccc(C(F)(F)F)c3)CC2)c1" is 5.04

pIC50 for "O=S(=O)(NC[C@H]1C[C@H](S(=O)(=O)c2cccc(C(F)(F)F)c2)C1)c1cccc(C(F)(F)F)c1" is 5.42

pIC50 for "O=C(NC[C@H]1C[C@H](S(=O)(=O)c2cccc(C(F)(F)F)c2)C1)c1ccc(OC(F)(F)F)cc1" is 6.09

pIC50 for "CC(C)(C)NC(=O)CN[C@H]1C[C@H](CS(=O)(=O)c2cccc(C(F)(F)F)c2)C1" is 6.19
